# measured_on: D-Amino acid oxidase from porcine kidney (DAAO) (Sus scrofa)
# Sequence (P00371 whole entry): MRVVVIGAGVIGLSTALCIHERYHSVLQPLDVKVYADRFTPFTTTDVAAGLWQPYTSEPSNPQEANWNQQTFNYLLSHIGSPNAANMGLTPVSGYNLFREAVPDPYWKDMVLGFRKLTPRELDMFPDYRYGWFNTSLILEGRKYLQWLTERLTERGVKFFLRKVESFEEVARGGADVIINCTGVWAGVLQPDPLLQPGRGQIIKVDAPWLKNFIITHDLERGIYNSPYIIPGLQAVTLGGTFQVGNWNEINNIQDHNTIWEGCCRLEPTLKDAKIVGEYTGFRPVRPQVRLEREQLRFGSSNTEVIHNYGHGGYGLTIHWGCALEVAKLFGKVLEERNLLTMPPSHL
readout_name: pIC50
Scale for pIC50: -log10 of concentration given in mol/L; no unit attached.

Exercise: Determine from records and report pIC50 for O=C(O)C1Cc2c(O)c(O)cc(Br)c2C=N1 (racemic)
Solution: 2.69

Exercise: Respond only with pIC50 recorded for CC1(C(=O)O)Cc2cc(O)c(O)cc2C2C(Cl)C(=O)N21 (stereo not drawn)
Solution: 2.69

Exercise: Identify measured pIC50 corresponding to O=C(O)C1Cc2cc(O)c(O)c(Br)c2C=N1 (racemic)
Solution: 2.70
